Task for the reader: assign each of the following molecules its reported AC50.
test system: TFEB; assay: TFEB nuclear translocation assay, HeLa wt cells; type: cell-based; details: Homo sapiens, HeLa, 2 h, 2 hrs compound treatment, Table 1 does not say HeLa wt or TRPML1 KO

Use the examples below as a reference point.
{"columns": ["molecule", "assay_system", "AC50"],
 "data": [
  ["CN(C)S(=O)(=O)c1ccc(S(=O)(=O)Nc2ccccc2N2CC3CC(C2)N3c2ccc(Cl)cc2F)cc1", "TFEB", "≤ 2000 nM"],
  ["CS(=O)(=O)c1ccc(S(=O)(=O)Nc2ccccc2N2CCC3(CC2)OCc2cc(F)ccc23)cc1", "TFEB", "2010 to 8000 nM"],
  ["CN(C)S(=O)(=O)c1ccc(S(=O)(=O)Nc2ccccc2N2CCN(CC3CCOCC3)CC2)cc1", "TFEB", "≤ 2000 nM"],
  ["CN(C)S(=O)(=O)c1ccc(S(=O)(=O)Nc2ccccc2N2CCC(O)(c3ccc(F)cc3F)CC2)cc1", "TFEB", "≤ 2000 nM"]
]}

Please go through the list and note AC50 for each molecule.
1. COCC1(C)C2CCC1CN(c1ccccc1NS(=O)(=O)c1ccc(S(=O)(=O)N(C)C)cc1)C2 (stereo not drawn)
2. CC(C)(C)C(=O)N1CCN(c2ccccc2NS(=O)(=O)Cc2ccc(Br)cc2F)CC1
3. Cc1cc(S(=O)(=O)Nc2ccccc2N2CCC3(CC2)COC(C)(C)C3)ccc1F
4. CN(C)S(=O)(=O)c1ccc(S(=O)(=O)Nc2ccccc2N2CCC(COC(C)(C)C)CC2)cc1
5. CC(C)S(=N)(=O)c1ccc(S(=O)(=O)[C@H](C)c2cccc(F)c2N2CCCCC2)cc1 (single isomer, unassigned) [Compound A-923]
6. Cc1ccc(S(=O)(=O)Nc2ccccc2N2CCC(c3ccc(Cl)cn3)CC2)cc1
7. Cc1cc(Cl)c(N2CCOCC2)c(NS(=O)(=O)c2ccc3c(c2)CCC3)c1
8. CC(c1cccc(F)c1N1CCOCC1)S(=O)(=O)c1ccc2c(c1)CCS2(=O)=O (stereo not drawn) [Compound A-957]

1. ≤ 2000 nM
2. 8010 to 9990 nM
3. 2010 to 8000 nM
4. ≤ 2000 nM
5. ≥ 10000 nM
6. ≤ 2000 nM
7. ≤ 2000 nM
8. ≥ 10000 nM

Please go through the list and note AC50 for each molecule.
1. COCC1(C)CCN(c2ccccc2NS(=O)(=O)c2ccc(S(=O)(=O)N(C)C)cc2)C(C)C1 (stereo not drawn)
2. CC(C)(C)C(=O)N1CCN(c2ccccc2NS(=O)(=O)C2(c3ccccc3)CC2)CC1
3. COCC1(C)CCN(c2ccccc2NS(=O)(=O)Cc2cccc(C(C)(C)C)c2)CC1
4. CN(C)S(=O)(=O)c1ccc(S(=O)(=O)Nc2ccccc2N2CCCC3(CCCOC3)C2)cc1 (stereo not drawn)
5. CN(C)S(=O)(=O)c1ccc(S(=O)(=O)Nc2ccccc2N2CCC(O)(c3ccc(F)cn3)CC2)cc1
6. COCC1(C)CCN(c2ccccc2NS(=O)(=O)Cc2ccc3c(c2)COCC3)CC1
7. COc1ccc(S(=O)(=O)Nc2ccccc2N2CCC(c3ccc(F)cc3F)CC2)cn1

1: ≥ 10000 nM; 2: ≤ 2000 nM; 3: 2010 to 8000 nM; 4: ≤ 2000 nM; 5: ≤ 2000 nM; 6: 2010 to 8000 nM; 7: 2010 to 8000 nM

Please go through the list and note AC50 for each molecule.
1. CN(C)S(=O)(=O)c1ccc(S(=O)(=O)Nc2ccccc2N2CCC(C)(C(=O)NC(C)(C)C)CC2)cc1
2. CC1(C)CC2(CCN(c3ccccc3NS(=O)(=O)c3ccc4c(c3)CC(C)(C)O4)CC2)CO1
3. Cc1nn(C)c(N2CCN(c3ccc(Cl)cc3F)CC2)c1NS(=O)(=O)c1ccc(S(=O)(=O)N(C)C)cc1
4. CN1CCC(S(=O)(=O)Nc2ccccc2N2CCN(c3ccc(Cl)cc3F)CC2)CC1

1. ≤ 2000 nM
2. 2010 to 8000 nM
3. ≤ 2000 nM
4. 2010 to 8000 nM

Please indicate AC50 recorded for C[C@@H]1COC[C@@H](C)N1C[C@H]1CCN(c2c(F)cccc2NS(=O)(=O)c2ccc(S(=O)(=O)N(C)C)cc2)C1 (relative stereo)
≤ 2000 nM

---

tested on: TFEB; assay: TFEB nuclear translocation assay, HeLa wt cells; format: cell-based; conditions: Homo sapiens, HeLa, 2 h, 2 hrs compound treatment, Table 1 does not say HeLa wt or TRPML1 KO
Task for the reader: assign each of the following compounds its reported AC50.

{"columns": ["line_notation", "AC50"],
 "data": [
  ["CN(C)S(=O)(=O)c1ccc(S(=O)(=O)Nc2ccccc2N2CCC(F)(COC(F)(F)F)CC2)cc1", "≤ 2 µM"],
  ["Cc1nn(S(=O)(=O)c2ccc(S(=O)(=O)N(C)C)cc2)cc1N1CCN(c2ccc(Cl)cc2F)CC1=O", "≥ 10 µM"]
]}

The record that follows has no AC50 shown yet.
Please indicate AC50 recorded for CN1CCC2(CCN(c3ccccc3NS(=O)(=O)c3ccc(S(=O)(=O)N(C)C)cc3)CC2)C1
≥ 10 µM

---

system: TFEB; test: TFEB nuclear translocation assay, HeLa wt cells; type: cell-based; settings: Homo sapiens, HeLa, 2 h, 2 hrs compound treatment, Table 1 does not say HeLa wt or TRPML1 KO
attribute_measured: AC50

Use the examples below as a reference point.
{"columns": ["compound", "result"],
 "data": [
  ["CC(c1cncc(F)c1N1CCC(F)(F)CC1)S(=O)(=O)c1ccc(S(=O)(=O)N(C)C)cc1 (stereo not shown)", "≥ 10000 nM"],
  ["COCC1(C)CCN(c2ccccc2NS(=O)(=O)c2ccc3c(c2)CC(C)(C)O3)CC1", "≤ 2000 nM"],
  ["CN(C)S(=O)(=O)c1ccc(S(=O)(=O)Nc2ccccc2N2CCC(COC(F)(F)F)CC2)cc1", "≤ 2000 nM"],
  ["O=S(=O)(CC12CC3CC(CC(C3)C1)C2)Nc1cccc(Cl)c1N1CCOCC1", "2010 to 8000 nM"],
  ["CC(c1ccc(S(=O)(=O)Nc2ccccc2N2CCC(CN3C[C@@H](C)O[C@@H](C)C3)CC2)cc1)C1CC1 (stereo partly shown)", "≤ 2000 nM"]
]}

Please go through the list and note AC50 for each compound.
1. CC(C1CCN(c2c(F)cccc2NS(=O)(=O)c2ccc(S(=N)(=O)N(C)C)cc2)CC1)N1C[C@@H](C)O[C@@H](C)C1 (single isomer, unassigned) [Compound A-871]
2. CC(C)(C)C(=O)N1CCN(c2ccccc2NS(=O)(=O)c2ccc(C(C)(C)C#N)cc2)CC1
3. C[C@@H]1COC[C@@H](C)N1CC1CCN(c2c(F)cccc2NS(=O)(=O)c2ccc(S(=N)(=O)N(C)C)cc2)CC1 (stereo partly shown)
4. Cc1ccc(S(=O)(=O)N(C)c2ccccc2N2CCC(c3ccc(Cl)cc3F)CC2)cc1
5. O=C(NC1CC1)c1ccc(S(=O)(=O)Nc2ccccc2N2CCC(c3ccc(Cl)cc3F)CC2)cc1

≤ 2000 nM
2010 to 8000 nM
≤ 2000 nM
≥ 10000 nM
2010 to 8000 nM

Please go through the list and note AC50 for each compound.
1. O=S(=O)(Nc1cc(Cl)ccc1N1CCCC2(CCCOC2)C1)c1ccc2c(c1)CCC2 (stereo not shown)
2. CN(C)S(=O)(=O)c1ccc(S(=O)(=O)Nc2ccccc2N2CCC(COC(F)(F)CF)CC2)cc1
3. COCC1(C)CCN(c2ccccc2NS(=O)(=O)c2ccc(C3CC3)cc2)CC1
4. CS(=O)(=O)c1ccc(S(=O)(=O)Nc2ccccc2N2CCC(c3c(F)cccc3F)CC2)cc1
5. CN(C(=O)C1CCN(c2ccccc2NS(=O)(=O)c2ccc(S(=O)(=O)N(C)C)cc2)CC1)C(C)(C)C

["≤ 2000 nM", "≤ 2000 nM", "≤ 2000 nM", "≤ 2000 nM", "≤ 2000 nM"]

Please indicate AC50 recorded for O=S(=O)(Nc1cc(Cl)ccc1N1CCC(c2ccc(Cl)cc2F)CC1)c1ccc2c(c1)CCC2
≤ 2000 nM

---

test system: TFEB; assay: TFEB nuclear translocation assay, HeLa wt cells; type: cell-based; conditions: Homo sapiens, HeLa, 2 h, 2 hrs compound treatment, Table 1 does not say HeLa wt or TRPML1 KO
Task for the reader: assign each of the following molecules its reported AC50.

{"columns": ["line_notation", "assay_system", "attribute_measured", "result"],
 "data": [
  ["CN(C)S(=O)(=O)c1ccc(S(=O)(=O)Nc2ccccc2N2CCN(CC(F)(F)F)CC2)cc1", "TFEB", "AC50", "≤ 2 µM"]
]}

Please go through the list and note AC50 for each molecule.
1. COCCS(=O)(=O)Nc1cccc(Cl)c1N1CCOCC1
2. COc1ccc(S(=O)(=O)Nc2cnncc2N2CCC(c3ncc(F)cc3F)CC2)cc1
3. COCC1(C)CCN(c2ccccc2NS(=O)(=O)Cc2cccc(S(C)(=O)=O)c2)CC1
4. COCC1(C)CCN(c2ccccc2NS(=O)(=O)Cc2cccc(F)c2)CC1
5. CN(C)S(=O)(=O)c1ccc(S(=O)(=O)Nc2ccccc2N2CCOCC2)cc1

1. ≥ 10 µM
2. ≥ 10 µM
3. 8.01 to 9.99 µM
4. 2.01 to 8 µM
5. ≥ 10 µM
